# Test system: human lung cancer A549 cells
# EXPERIMENT SUMMARY: Orthotopic transplantation tumor model of human lung cancer A549 cells;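 also: test animals were NOG mice aged 6-8 weeks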
# CONDITION PARAMETERS: after administration for 28 days
QUANTITY MEASURED: Mice survival rate after experiment (%)
Entry rule: numbers only, all in %.

Need Mice survival rate after experiment, item rLZ-8 (K46E/K74E): rLZ-8 mutant K46E and K74E (protein) MSDTALIFRLAWDVKKLSFDYTPNWGRGNPNNFIDTVTFPKVLTDEAYTYRVAVSGRNLGVKPSYAVESDGSQEVNFLEYNSGYGIADTNTIQVFVVDPDTNNDFIIAQWN
50

Cool, now rLZ-8 (S18A): alanine mutant of rLZ-8 at S18 (protein) MSDTALIFRLAWDVKKLAFDYTPNWGRGNPNNFIDTVTFPKVLTDKAYTYRVAVSGRNLGVKPSYAVESDGSQKVNFLEYNSGYGIADTNTIQVFVVDPDTNNDFIIAQWN
30

Cool, now rLZ-8 (K16A/K41A): alanine mutant of rLZ-8 at K16 and K41 (protein) MSDTALIFRLAWDVKALSFDYTPNWGRGNPNNFIDTVTFPAVLTDKAYTYRVAVSGRNLGVKPSYAVESDGSQKVNFLEYNSGYGIADTNTIQVFVVDPDTNNDFIIAQWN
20

Cool, now rLZ-8 (K41D/K46E/K74E): rLZ-8 mutant K41D, K46E and K74E (protein) MSDTALIFRLAWDVKKLSFDYTPNWGRGNPNNFIDTVTFPDVLTDEAYTYRVAVSGRNLGVKPSYAVESDGSQEVNFLEYNSGYGIADTNTIQVFVVDPDTNNDFIIAQWN
40

Cool, now rLZ-8 (R9A): alanine mutant of rLZ-8 at R9 (protein) MSDTALIFALAWDVKKLSFDYTPNWGRGNPNNFIDTVTFPKVLTDKAYTYRVAVSGRNLGVKPSYAVESDGSQKVNFLEYNSGYGIADTNTIQVFVVDPDTNNDFIIAQWN
50

Cool, now rLZ-8 (L17K): rLZ-8 mutant after surface potential optimization, L17K (protein) MSDTALIFRLAWDVKKKSFDYTPNWGRGNPNNFIDTVTFPKVLTDKAYTYRVAVSGRNLGVKPSYAVESDGSQKVNFLEYNSGYGIADTNTIQVFVVDPDTNNDFIIAQWN
70

Cool, now rLZ-8 (K46E): rLZ-8 mutant K46E (protein) MSDTALIFRLAWDVKKLSFDYTPNWGRGNPNNFIDTVTFPKVLTDEAYTYRVAVSGRNLGVKPSYAVESDGSQKVNFLEYNSGYGIADTNTIQVFVVDPDTNNDFIIAQWN
40

Cool, now rLZ-8 (L17K/D70K): rLZ-8 mutant after surface potential optimization, L17K and D70K (protein) MSDTALIFRLAWDVKKKSFDYTPNWGRGNPNNFIDTVTFPKVLTDKAYTYRVAVSGRNLGVKPSYAVESKGSQKVNFLEYNSGYGIADTNTIQVFVVDPDTNNDFIIAQWN
80

Cool, now rLZ-8 (D70K): rLZ-8 mutant after surface potential optimization, D70K (protein) MSDTALIFRLAWDVKKLSFDYTPNWGRGNPNNFIDTVTFPKVLTDKAYTYRVAVSGRNLGVKPSYAVESKGSQKVNFLEYNSGYGIADTNTIQVFVVDPDTNNDFIIAQWN
80

Cool, now rLZ-8 (D20H): rLZ-8 mutant after surface potential optimization, D20H (protein) MSDTALIFRLAWDVKKLSFHYTPNWGRGNPNNFIDTVTFPKVLTDKAYTYRVAVSGRNLGVKPSYAVESDGSQKVNFLEYNSGYGIADTNTIQVFVVDPDTNNDFIIAQWN
70

Cool, now rLZ-8 (K16A/S18A/K41A/D45A): alanine mutant of rLZ-8 at K16, S18, K41 and D45 (protein) MSDTALIFRLAWDVKALAFDYTPNWGRGNPNNFIDTVTFPAVLTAKAYTYRVAVSGRNLGVKPSYAVESDGSQKVNFLEYNSGYGIADTNTIQVFVVDPDTNNDFIIAQWN
10

Cool, now rLZ-8 (D20H/D70K): rLZ-8 mutant after surface potential optimization, D20H and D70K (protein) MSDTALIFRLAWDVKKLSFHYTPNWGRGNPNNFIDTVTFPKVLTDKAYTYRVAVSGRNLGVKPSYAVESKGSQKVNFLEYNSGYGIADTNTIQVFVVDPDTNNDFIIAQWN
70

Cool, now rLZ-8 (D45A): alanine mutant of rLZ-8 at D45 (protein) MSDTALIFRLAWDVKKLSFDYTPNWGRGNPNNFIDTVTFPKVLTAKAYTYRVAVSGRNLGVKPSYAVESDGSQKVNFLEYNSGYGIADTNTIQVFVVDPDTNNDFIIAQWN
30
